- Tested on: HEK-293T
- protocolNotes: Multiplex assay against HEK293T
- Assay type: toxicity, cell-based
- conditionNotes: human, 12 h, 10 µM, compound concentration 10 uM, replicate 1
Reported Population Healthy Nuclei (%) values for the following molecules.
Expressed in %, but write only the number.

What value of Population Healthy Nuclei (%) has been reported for the following molecule? `CCCCC(=O)N(Cc1ccc(-c2ccccc2-c2nnn[nH]2)cc1)[C@H](C(=O)O)C(C)C`
83

====

Each entry below lists one item and its recorded Population Hoechst High Intensity Objects (%) value.
- Test system: HEK-293T
- protocolNotes: Multiplex assay against HEK293T
- Assay type: toxicity, cell-based
- conditionNotes: human, 48 h, 1 µM, compound concentration 1 uM, replicate 1
Field format: number, assumed %, no unit text.

Examples from the recorded data:
# compound, valueReported
records = [
    ("Cc1noc(-c2ccc(-c3ccc(CC(=O)O)cc3)cc2)c1NC(=O)O[C@H](C)c1ccccc1Cl", 4),
    ("O=C(CCCc1ccccc1)Nc1nc2ccccc2c(=O)s1", 2),
    ("CC(C)c1noc(N2CCC(COc3ccc(-c4ccc(S(C)(=O)=O)cc4)nc3)CC2)n1", 3),
]

May I ask what Population Hoechst High Intensity Objects (%) has been recorded for `CC(C)COc1ccc(CNC(=O)N(Cc2ccc(F)cc2)C2CCN(C)CC2)cc1` ?
5

Using the record for `CC(/C=C1\SC(=S)N(CCCC(=O)Nc2ccc(C(=O)O)c(O)c2)C1=O)=C\c1ccccc1` , report its Population Hoechst High Intensity Objects (%).
2

Look at this compound and give its reported Population Hoechst High Intensity Objects (%). `CCc1cc2cc(NS(=O)(=O)c3ccc(C#N)cc3)ccc2n(CC)c1=O`
2

Field request: Population Hoechst High Intensity Objects (%) | item: `CN1CCN(c2cc(-c3ccccc3)nc(N)n2)CC1`
1
